molecular target: Delta-type opioid receptor (Rattus norvegicus, UniProt P33533); test: Inhibition of [3H]-DPDPE binding to Opioid receptor delta 1 of rat brain membranes
Sequence (P33533 whole entry): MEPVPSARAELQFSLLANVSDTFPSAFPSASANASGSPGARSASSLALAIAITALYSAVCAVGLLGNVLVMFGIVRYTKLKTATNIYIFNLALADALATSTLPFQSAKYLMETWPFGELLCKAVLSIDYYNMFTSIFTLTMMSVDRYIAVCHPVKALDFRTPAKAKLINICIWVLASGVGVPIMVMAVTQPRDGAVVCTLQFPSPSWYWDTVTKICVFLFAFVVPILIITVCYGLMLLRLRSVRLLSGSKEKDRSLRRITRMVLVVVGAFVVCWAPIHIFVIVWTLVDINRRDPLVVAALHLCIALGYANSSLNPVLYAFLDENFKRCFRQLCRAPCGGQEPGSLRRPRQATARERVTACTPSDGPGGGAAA
readoutType: log10 of IC50 (log10 of the value in µM)
Hi team, quick reminder: these entries are log10 of IC50 (µM).

C[C@@H](O)[C@H](NC(=O)[C@H]1NC(=O)[C@H]([C@@H](C)O)NC(=O)[C@H](CCCCN)NC(=O)[C@@H](Cc2c[nH]c3ccccc23)NC(=O)[C@H](Cc2ccc(O)cc2)NC(=O)[C@@H](NC(=O)[C@H](N)Cc2ccccc2)CSSC1(C)C)C(N)=O ... 0.92
C[C@@H](O)[C@H](NC(=O)[C@H]1NC(=O)[C@H]([C@@H](C)O)NC(=O)[C@H](CCCN=C(N)N)NC(=O)[C@@H](Cc2c[nH]c3ccccc23)NC(=O)[C@H](Cc2ccc(O)cc2)NC(=O)[C@@H](NC(=O)[C@H](N)Cc2ccccc2)CSSC1(C)C)C(N)=O ... 0.65
CC(C)[C@@H]1NC(=O)[C@H](CCCCN)NC(=O)[C@@H](Cc2c[nH]c3ccccc23)NC(=O)[C@H](Cc2ccc(O)cc2)NC(=O)[C@@H](NC(=O)[C@H](N)Cc2ccccc2)CSSC(C)(C)[C@@H](C(=O)NC(C(N)=O)[C@@H](C)O)NC1=O (stereo in doubt) ... 0.30
C[C@@H](O)[C@H](NC(=O)[C@@H]1CSSC[C@H](NC(=O)[C@H](N)Cc2ccc(O)cc2)C(=O)N[C@@H](Cc2ccc(O)cc2)C(=O)N[C@H](Cc2c[nH]c3ccccc23)C(=O)N[C@@H](CCCCN)C(=O)N[C@@H]([C@@H](C)O)C(=O)N1)C(=O)O ... 1.44
C[C@@H](O)[C@H](NC(=O)[C@H]1NC(=O)[C@H]([C@@H](C)O)NC(=O)[C@H](CCCN)NC(=O)[C@@H](Cc2c[nH]c3ccccc23)NC(=O)[C@H](Cc2ccc(O)cc2)NC(=O)[C@@H](NC(=O)[C@H](N)Cc2ccccc2)CSSC1(C)C)C(N)=O ... 1.13

[Q] Find the recorded log10 of IC50 belonging to CCCC[C@@H]1NC(=O)[C@@H](Cc2c[nH]c3ccccc23)NC(=O)[C@H](Cc2ccc(O)cc2)NC(=O)[C@@H](NC(=O)[C@H](N)Cc2ccccc2)CSSC(C)(C)[C@@H](C(=O)N[C@H](C(N)=O)[C@@H](C)O)NC(=O)[C@H]([C@@H](C)O)NC1=O and report it.
[A] 0.75

[Q] Looking for the measured log10 of IC50 of C[C@@H](O)[C@H](NC(=O)[C@H]1NC(=O)[C@H]([C@@H](C)O)NC(=O)[C@H](CCCCN)NC(=O)[C@@H](Cc2c[nH]c3ccccc23)NC(=O)[C@H](Cc2ccc(O)cc2)NC(=O)[C@@H](NC(=O)[C@H](N)c2ccccc2)CSSC1(C)C)C(N)=O , can you help?
[A] 0.45
